Test system: CCRF-CEM leukemia
measurement.description: NCI-60 one-dose screen, 48 h (100 = growth as untreated, 0 = no growth, -100 = all killed)
condition.details: 10 µM unless noted
The panel holds about 83,000 compounds, 20% with a hit somewhere; the sample as a whole holds those more often.
Given measured growth, output TRUE if it is greater than or equal to 20% and FALSE if not.

For orientation, consider the following solved cases.
## Input Decide: growth of Cc1ccc(C2=Nc3c(N)ncnc3NC(c3ccc4c(c3)OCO4)C2)cc1 (centres undefined) >= 20%?
## Output FALSE

## Input Item CC(C)c1ccc(NC(=O)Nc2ccc(NC(=O)CCCC(=O)NOCc3ccccc3)cc2)cc1 with growth of 20% or above?
## Output TRUE

## Input Confirm if growth reported for the molecule Clc1ccc(Nc2nnc(COc3ccccc3)c3ccccc23)cc1 is 20% or above.
## Output FALSE

## Input Exam item: decide whether the reported growth for COc1ccc(-c2csc(N(C(=O)N3CCN(c4cc5c(cc4F)c(=O)c(C(=O)O)cn5C4CC4)CC3)c3ccccc3)n2)cc1 is at least 20%.
## Output TRUE

## Input State whether the measured growth reaches 20%, counting equality as reaching it, for C=C1C(=O)O[C@H]2[C@H]1CC/C(COC(=O)CCSCCC(=O)OC/C1=C/CC[C@@]3(C)O[C@H]3[C@H]3OC(=O)C(=C)[C@@H]3CC1)=C\CC[C@@]1(C)O[C@@H]21
## Output FALSE

---
## Input Threshold query (growth >= 20%) on O=C1c2cccc3cccc(c23)C(=O)N1N1C(=O)c2cccc3c(N4CCOCC4)ccc(c23)C1=O
## Output TRUE

## Input Can C/C(=N/O)c1ccc(F)cc1 be said to have growth at or above 20%?
## Output TRUE

## Input // inclusive: growth at least 20%? input: COc1ccc2c(c1)c(-c1noc(C(=O)c3cn(C)c4ccc(Br)cc34)n1)cn2C
## Output TRUE

## Input Does the reported growth for O=C(Nc1ccc(-c2nc(N3CCOCC3)c3cccn3n2)cc1)Nc1cccnc1 fall at or above the 20% mark?
## Output FALSE

## Input API: above_or_equal(metric=growth, cutoff=20%) for item CCOC(=O)c1cnc2ccccc2c1Cl
## Output TRUE

## Input Has O=C(Nc1cccc([N+](=O)[O-])c1)c1cc2ccccc2cc1O a recorded growth greater than or equal to 20%?
## Output FALSE

## Input Dear colleague, could you confirm whether CC(C)c1ccc(COCc2cc(CN3CCCC3)c(O)c3ncccc23)cc1 has growth at or above 20%?
## Output FALSE

## Input Confirm if growth reported for the molecule COC(=O)c1c2c(c(C)[n+]([O-])c1C)C(=O)C(NCc1ccc(Cl)cc1)=CC2=O is 20% or above.
## Output TRUE

## Input Could you please find out whether N#CC1C=CN(CC(N)=O)c2ccc3cccnc3c21 (centres undefined) has growth that meets 20% or exceeds it?
## Output TRUE

## Input Does the reported growth for COc1ccc(C(=O)Nc2ncc(Cc3cccc(Cl)c3)s2)cc1OC fall at or above the 20% mark?
## Output FALSE

## Input Hi, just wondering whether CS(=O)(=O)Nc1cc(-c2ccc3ncnc(Nc4ccc5c(cnn5Cc5ccccn5)c4)c3c2)cnc1Cl shows growth of 20% or higher.
## Output TRUE

## Input Does COC(=O)c1c2c(c(C)[n+]([O-])c1C)C(=O)C=C(NCc1ccc(OC)cc1)C2=O have a reported growth of at least 20%?
## Output FALSE

## Input Hi team, for C=CCn1c(SCC(=O)Nc2ccc(C(=O)/C=C/c3ccc(Cl)cc3)cc2)nnc1-c1cc(-c2ccc(S(N)(=O)=O)cc2)nc2ccccc12 , is the recorded growth at or above 20%?
## Output TRUE

## Input Quick check: does Cn1cc(-c2nc(-c3c[nH]c4ccncc34)cs2)c2ccccc21 have growth greater than or equal to 20%?
## Output FALSE
